Test system: CD2F1 mice, L1210 leukemia ip, survival T/C
Assay Protocol: NCI In Vivo Anticancer Drug Screen. Data for tumor model L1210 Leukemia (intraperitoneal) in CD2F1 (CDF1) mice
Cond: endpoint: mean survival time; dose: 200.0 mg/kg/injection; schedule: Q04DX003 (ip); vehicle: saline; higher = longer survival
Inconclusive results and toxic doses are left out.
Reported T/C by item:

Answered cases to consult:
Smiles Notation | Measured Value
O=C(Cl)CCc1ccnc2ccccc12 | 101 % of control
CCOC(=O)CCC1(CCC(=O)OCC)OCCO1 | 96 % of control

The record that follows has no T/C shown yet.
Look up T/C with CD2F1 mice, L1210 leukemia ip, survival T/C for this compound: CCOC(=O)C(=O)C[n+]1cc2ccccc2cc1/C=N/O
105 % of control

Data provenance: PubChem BioAssay AID256
